Hello, the source for this data is paper PMC11979273, in case you need it.

assayDetails: Multiple ascending-dose (MAD) study, plasma pharmacokinetics
Format: in vivo, human
assaySetup: both sexes, human, plasma, oral, 10 mg, MAD 10 mg (N = 10), D1, fasting, median (min, max); read-out: Tmax
endpoint: Tmax (h)

compound	endpointUnit	quantitativeReadout
Cc1nc(-c2cnc(N3CCN(CCCc4c[nH]c5ccc(C#N)cc45)CC3)nc2)sc1C(N)=O [HEC113995PA·H2O]	h	5.5

----------
assayDetails: Single ascending-dose (SAD) study, plasma pharmacokinetics
Assay type: in vivo, human
assaySetup: both sexes, human, plasma, oral; SAD single dose 5 mg, N = 8, median (min, max); read-out: Tmax

molecule	Tmax
Cc1nc(-c2cnc(N3CCN(CCCc4c[nH]c5ccc(C#N)cc45)CC3)nc2)sc1C(N)=O [HEC113995PA·H2O]	5 h

----------
assayDetails: Multiple ascending-dose (MAD) study, plasma pharmacokinetics
Assay type: in vivo, human
assaySetup: both sexes, human, plasma, oral, 20 mg, MAD 20 mg (N = 9), D10, QD after standard meal, mean (SD); read-out: Vss/F

compound	endpointUnit	Vd/F
Cc1nc(-c2cnc(N3CCN(CCCc4c[nH]c5ccc(C#N)cc45)CC3)nc2)sc1C(N)=O [HEC113995PA·H2O]	L	402

----------
assayDetails: Single ascending-dose (SAD) study, plasma pharmacokinetics
Assay type: in vivo, human
assaySetup: both sexes, human, plasma, oral, 20 mg, SAD single dose 20 mg, N = 8, mean (SD); read-out: AUC0-t
endpoint: AUC(0-t) (ng·h/mL)

compound	endpoint	endpointUnit	quantitativeReadout
Cc1nc(-c2cnc(N3CCN(CCCc4c[nH]c5ccc(C#N)cc45)CC3)nc2)sc1C(N)=O [HEC113995PA·H2O]	AUC(0-t)	ng·h/mL	1450

----------
assayDetails: Single ascending-dose (SAD) study, plasma pharmacokinetics
Type: in vivo, human
assaySetup: both sexes, human, plasma, oral; SAD single dose 2.5 mg, N = 6, mean (SD); read-out: AUC0-∞
endpoint: AUC(0-inf) (ng·h/mL)

compound	quantitativeReadout
Cc1nc(-c2cnc(N3CCN(CCCc4c[nH]c5ccc(C#N)cc45)CC3)nc2)sc1C(N)=O [HEC113995PA·H2O]	220

----------
assayDetails: Food effect study, plasma pharmacokinetics
Type: in vivo, human
assaySetup: both sexes, human, plasma, po, 20 mg, single oral 20 mg, fed with high-fat, high-calorie meal, N = 18, mean (SD)
endpoint: half-life (h)

compound	endpoint	quantitativeReadout
Cc1nc(-c2cnc(N3CCN(CCCc4c[nH]c5ccc(C#N)cc45)CC3)nc2)sc1C(N)=O [HEC113995PA·H2O]	half-life	30.5

----------
assayDetails: Single ascending-dose (SAD) study, plasma pharmacokinetics
Assay type: in vivo, human
assaySetup: both sexes, human, oral; SAD single dose 10 mg, N = 8, plasma, mean (SD); read-out: Cmax
Procedure: The study comprised a total of 7 dose groups (2.5, 5, 10, 20, 40, 60, and 80 mg groups, respectively). The first dose group (2.5 mg) consisted of 8 subjects, with 6 receiving HEC113995PA·H2O and 2 receiving placebo. […] Drug safety and tolerability were evaluated on day 2 and 4 in the first dose group and on day 4 and 7 in the second to seventh dose groups. […] The concentration of HEC113995PA·H2O in human plasma samples (K2EDTA) was quantitatively analyzed using the LC-MS/MS method. […]

molecule	Cmax, ng/mL
Cc1nc(-c2cnc(N3CCN(CCCc4c[nH]c5ccc(C#N)cc45)CC3)nc2)sc1C(N)=O [HEC113995PA·H2O]	24.4
